# Measured On: T1, TNFR1 (Homo sapiens, UniProt P19438)
# T1 chain: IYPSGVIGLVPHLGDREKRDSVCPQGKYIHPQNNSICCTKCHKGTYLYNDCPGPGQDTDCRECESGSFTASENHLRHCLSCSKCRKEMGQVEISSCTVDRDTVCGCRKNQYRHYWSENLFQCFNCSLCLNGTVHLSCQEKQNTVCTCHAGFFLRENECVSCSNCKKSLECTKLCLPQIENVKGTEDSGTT
# Experiment Description: yeast display SC50
Parameter Measured: apparent Kd (screen) (nM)
Answers are plain numbers, in nM.

E26T (designed binder) SMEEEVEKAAKEYEKKKKEAIEKHLTKLKAKDKEAAERFLKELEEAAKEYAKDEAKTMSEEEAKRRAKKYKEKVLLSELSEEEQKEIKEAEEKLVRTILKYVEEAAK
0.593
M2V (designed binder) SVEEEVEKAAKEYEKKKKEAIEKHLEKLKAKDKEAAERFLKELEEAAKEYAKDEAKTMSEEEAKRRAKKYKEKVLLSELSEEEQKEIKEAEEKLVRTILKYVEEAAK
0.446
K18S (designed binder) SMEEEVEKAAKEYEKKKSEAIEKHLEKLKAKDKEAAERFLKELEEAAKEYAKDEAKTMSEEEAKRRAKKYKEKVLLSELSEEEQKEIKEAEEKLVRTILKYVEEAAK
0.446
I21P (designed binder) SMEEEVEKAAKEYEKKKKEAPEKHLEKLKAKDKEAAERFLKELEEAAKEYAKDEAKTMSEEEAKRRAKKYKEKVLLSELSEEEQKEIKEAEEKLVRTILKYVEEAAK
13.8
E60W (designed binder) SMEEEVEKAAKEYEKKKKEAIEKHLEKLKAKDKEAAERFLKELEEAAKEYAKDEAKTMSWEEAKRRAKKYKEKVLLSELSEEEQKEIKEAEEKLVRTILKYVEEAAK
0.446
Q84R (designed binder) SMEEEVEKAAKEYEKKKKEAIEKHLEKLKAKDKEAAERFLKELEEAAKEYAKDEAKTMSEEEAKRRAKKYKEKVLLSELSEEERKEIKEAEEKLVRTILKYVEEAAK
1.4
E86N (designed binder) SMEEEVEKAAKEYEKKKKEAIEKHLEKLKAKDKEAAERFLKELEEAAKEYAKDEAKTMSEEEAKRRAKKYKEKVLLSELSEEEQKNIKEAEEKLVRTILKYVEEAAK
0.653

Next:
Problem: Give the measured apparent Kd (screen) of E19L (designed binder) SMEEEVEKAAKEYEKKKKLAIEKHLEKLKAKDKEAAERFLKELEEAAKEYAKDEAKTMSEEEAKRRAKKYKEKVLLSELSEEEQKEIKEAEEKLVRTILKYVEEAAK .
Result: 0.49
